Target: HLA-A*02:01 (Homo sapiens, UniProt P04439, D140Y/D185E/D98H/E176V/E277Q/G131W/G231S/I119V/I121R/I166T/I218V/L300P/L318F/N151K/N90K/P208A/P217A/Q86G/Q94H/R138H/R169H/T345S)
Assay: MHC binding assay: UV-ligand exchange with β2m ELISA (peptide exchange yield)
Conditions: binding to HLA-A*02:01 evaluated by peptide exchange yield (UV-ligand exchange, β2m ELISA)

>  <substance>
281 (LLLESDPKVYSL; listed as Homo sapiens) [compound 281]

>  <Peptide exchange>
++ (≥20% = ++)

$$$$
>  <substance>
169 (ALADLSVAV; listed as Homo sapiens) [compound 169]

>  <Peptide exchange>
+++ (≥50 = +++)

$$$$
>  <substance>
81 (ILAEEPIYI; listed as Homo sapiens) [compound 81]

>  <Peptide exchange>
++ (≥20% = ++)

$$$$
>  <substance>
12 (RLLDPKTIFL; listed as Homo sapiens) [compound 12]

>  <Peptide exchange>
+++ (≥50 = +++)

$$$$
